The reported numbers originate from ChEMBL document CHEMBL1158465.

test: Oral bioavailability in Wistar rat at 1 mg/kg; assay type: ADME, organism-based; conditions: in vivo
Measurement Name: bioavailability

Exercise: # bioavailability lookup, item "Cc1cc(-c2[nH]ncc2C)c2cccc(OCc3c(C)ccnc3Cn3cccc(C(F)(F)F)c3=O)c2n1"
Solution: > 17%

---

experiment: Metabolic stability in human liver microsomes at 1 uM by HPLC; assay type: ADME, Microsome; conditions: read-out: Stability
Provide the recorded remaining at 1 µM for the entries that follow.
Your answer is read as %, so omit the unit and give the number.

Exercise: # remaining at 1 µM lookup, item "Cc1cc(-c2ccnn2C)c2cccc(OCc3c(C)ccnc3CNC(=O)C3CCCCC3)c2n1"
Solution: 17

Exercise: # remaining at 1 µM lookup, item "Cc1cc(-c2ccnn2C)c2cccc(OCc3c(Cl)cncc3Cl)c2n1"
Solution: 7

Exercise: # remaining at 1 µM lookup, item "Cc1cc(-c2ncsc2Cl)c2cccc(OCc3c(C)ccnc3Cn3cccc(C(F)(F)F)c3=O)c2n1"
Solution: 34

Exercise: # remaining at 1 µM lookup, item "Cc1cc(-c2[nH]ncc2C)c2cccc(OCc3c(C)ccnc3Cn3cccc(C(F)(F)F)c3=O)c2n1"
Solution: 21

Exercise: # remaining at 1 µM lookup, item "Cc1cc(-c2ncsc2Cl)c2cccc(OCc3c(Cl)cncc3Cl)c2n1"
Solution: 35

Exercise: # remaining at 1 µM lookup, item "Cc1cc(-c2n[nH]cc2C)c2cccc(OCc3c(Cl)cncc3Cl)c2n1"
Solution: 19

Exercise: # remaining at 1 µM lookup, item "Cc1cc(-c2ccnn2C)c2cccc(OCc3c(C)ccnc3Cn3cccc(C(F)(F)F)c3=O)c2n1"
Solution: 45

Exercise: # remaining at 1 µM lookup, item "Cc1cc(-c2ccnn2C)c2cccc(OCc3c(C)ccnc3CNC(=O)C(C)C)c2n1"
Solution: 13
